Test system: E. coli 25922
Assay: Syn-BNP MIC against E. coli
Assay type: cell-based, Escherichia coli
Details: E. coli 25922, Gram-negative
MIC values by entry

{"MOLECULE": "CO[C@@H](C(N)=O)[C@H](NC(=O)c1ccc(NC(=O)[C@@H](N)Cc2ccc(O)cc2)cc1)C(=O)Nc1ccc(C(=O)Nc2ccc(C(=O)Nc3ccc(C(=O)O)cc3)c(O)c2OC(C)C)cc1", "MIC / µg/mL": 2}
{"MOLECULE": "CO[C@@H](C(N)=O)[C@H](NC(=O)c1ccc(NC(=O)[C@@H](N)Cc2ccc(O)cc2)cc1)C(=O)Nc1ccc(C(=O)Nc2ccc(C(=O)Nc3ccc(C(=O)O)c(O)c3OC(C)C)c(O)c2OC(C)C)cc1", "MIC / µg/mL": 2}
{"MOLECULE": "COc1c(NC(=O)/C(C)=C/c2ccc(O)cc2)ccc(C(=O)N[C@@H](CC#N)C(=O)Nc2ccc(C(=O)Nc3ccc(C(=O)Nc4ccc(C(=O)O)cc4)c(O)c3OC)cc2)c1O", "MIC / µg/mL": 0.25}
{"MOLECULE": "COc1c(NC(=O)c2ccc(NC(=O)c3ccc(NC(=O)[C@H](CC#N)NC(=O)c4ccc(NC(=O)/C(C)=C/c5ccc(O)cc5)cc4)cc3)c(OC)c2O)ccc(C(=O)O)c1O [Albicidin, reference compound]", "MIC / µg/mL": 0.015}
{"MOLECULE": "CO[C@@H](C(N)=O)[C@H](NC(=O)c1ccc(NC(=O)[C@@H](N)Cc2ccccc2)cc1)C(=O)Nc1ccc(C(=O)Nc2ccc(C(=O)Nc3ccc(C(=O)O)c(O)c3OC(C)C)c(O)c2OC(C)C)cc1", "MIC / µg/mL": 0.125}

These entries and their values trace back to patent US20250230188A1.
